assay: BET inhibitor-based combinations targeting novel dependencies in MECOM-rearranged (r) AML: AML-194 cell line (AID 2202237;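 further: plate controls were vehicle wells for no effect and wells without cells for full effect; nearly all actives have a fitted effect of over 40% in size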); details: AML-194 (MECOM-r AML) viability, CellTiter-Glo, 48 h; series mostly up to 46 µM
Inconclusive results are not listed. Calls of active or inactive are those of the source. The call rests on the fitted dose curve; in most records, active means well fitted inhibition curve with a large enough effect; inconclusive means small, poorly fitted or top-dose-only effect; inactive means flat fitted curve, though single readings scatter.
A correct response names exactly one class from 1 (yes) (active), 0 (no) (inactive)

>>> label_value("CC1COc2c(N3CCN(C)CC3)c(F)cc3c(=O)c(C(=O)O)cn1c23 (stereo unspecified)")
"0 (no)"

Turning now to a further record.
Hello, I am checking results. What call was entered for CS(=O)(=O)OCCCCOS(C)(=O)=O ?
0 (no)
